tested on: Staphylococcus aureus; assay: Antibacterial activity against methicillin-resistant Staphylococcus aureus clinical isolate M17 by CLSI based micro-broth dilution method; assay type: functional
Measurement label: MIC (µg/mL)
Respond with the bare value in µg/mL.

[Q] For Staphylococcus aureus, give the measured MIC of the entry C=CCc1cc(-c2ccc(OCCC[N+](C)(C)CC(=O)NCCCC)c(CC=C)c2)c2oc(=S)n(Cc3ccccc3)c2c1.[Br-]
[A] 8

[Q] Report MIC under test system Staphylococcus aureus for C=CCc1cc(-c2ccc(OCCC[N+](C)(C)CC(=O)NCCCC)c(CC=C)c2)c2oc(=S)n(Cc3ccc(OC)cc3)c2c1.[Br-] .
[A] 16

[Q] State recorded MIC with Staphylococcus aureus, entry C=CCc1cc(-c2ccc(OCCC[N+](C)(C)CC(=O)NCCCC)c(CC=C)c2)c2oc(=S)n(Cc3ccc(C(F)(F)F)cc3)c2c1.[Br-] , no comment.
[A] 16

[Q] Look up Staphylococcus aureus data: MIC of C=CCc1cc(-c2ccc(OCCC[N+](C)(C)CC(=O)NCCCC)c(CC=C)c2)c2oc(=S)n(Cc3cc(Cl)cc(Cl)c3)c2c1.[Br-] , then report it.
[A] 32

[Q] Fill in MIC for C=CCc1cc(-c2ccc(OCCC[N+](C)(C)CC(=O)NCCCC)c(CC=C)c2)c2oc(=S)n(Cc3c(Cl)cccc3Cl)c2c1.[Br-] tested with Staphylococcus aureus.
[A] 16

[Q] // fetch MIC for C=CCc1cc(-c2ccc(OCCC[N+](C)(C)CC(=O)NCCCC)c(CC=C)c2)c2oc(=S)n(Cc3ccc(F)cc3Cl)c2c1.[Br-] ; system: Staphylococcus aureus
[A] 64

FYI, the data here is from ChEMBL document CHEMBL6127052.
